system: HEL cell; experiment: HEL cell effects: cell morphology (minimum cytotoxic concentration); settings: minimum cytotoxic concentration causing microscopically detectable alteration of cell morphology
observable: HEL cell effects cell morphology (MDC)

## Task Would you kindly share the measured HEL cell effects cell morphology (MDC) for CCCCc1cn(-c2nc(O)c3ncn([C@H]4C[C@H](O)[C@@H](CO)O4)c3n2)nn1 ?
## Result >270 μM

## Task Would you kindly share the measured HEL cell effects cell morphology (MDC) for OC[C@H]1O[C@@H](n2cnc3c(O)nc(-n4cc(-c5ccc(F)cc5)nn4)nc32)[C@H](O)[C@@H]1O ?
## Result >230 μM

## Task Would you kindly share the measured HEL cell effects cell morphology (MDC) for OC[C@H]1O[C@@H](n2cnc3c(N4CCOCC4)nc(-n4cc(-c5ccccc5)nn4)nc32)[C@@H](O)C1O (stereo partly shown) ?
## Result 240 μM

## Task Would you kindly share the measured HEL cell effects cell morphology (MDC) for OCc1cn(-c2nc(O)c3ncn([C@@H]4O[C@H](CO)[C@@H](O)[C@H]4O)c3n2)nn1 ?
## Result >270 μM

## Task Would you kindly share the measured HEL cell effects cell morphology (MDC) for O=C1c2ccccc2C(=O)N1Cc1cn(-c2nc(O)c3ncn([C@H]4C[C@H](O)[C@@H](CO)O4)c3n2)nn1 ?
## Result >210 μM

## Task Would you kindly share the measured HEL cell effects cell morphology (MDC) for OC[C@H]1O[C@@H](n2cnc3c(NCc4ccccc4)nc(-n4cc(-c5ccccc5)nn4)nc32)[C@@H](O)C1O (stereo partly shown) ?
## Result 200 μM

## Task Would you kindly share the measured HEL cell effects cell morphology (MDC) for OCc1cn(-c2nc(O)c3ncn([C@H]4C[C@H](O)[C@@H](CO)O4)c3n2)nn1 ?
## Result >290 μM

## Task Would you kindly share the measured HEL cell effects cell morphology (MDC) for OC[C@H]1O[C@@H](n2cnc3c(O)nc(-n4cc(-c5ccccc5)nn4)nc32)C[C@@H]1O ?
## Result >250 μM

## Task Would you kindly share the measured HEL cell effects cell morphology (MDC) for COc1ccc(-c2cn(-c3nc(O)c4ncn([C@H]5C[C@H](O)[C@@H](CO)O5)c4n3)nn2)cc1 ?
## Result >240 μM

## Task Would you kindly share the measured HEL cell effects cell morphology (MDC) for O=C1c2ccccc2C(=O)N1Cc1cn(-c2nc(O)c3ncn([C@@H]4O[C@H](CO)[C@@H](O)[C@H]4O)c3n2)nn1 ?
## Result >200 μM

## Task Would you kindly share the measured HEL cell effects cell morphology (MDC) for OC[C@H]1O[C@@H](n2cnc3c(O)nc(-n4cc(-c5ccccc5)nn4)nc32)[C@H](O)[C@@H]1O ?
## Result 240 μM

## Task Would you kindly share the measured HEL cell effects cell morphology (MDC) for Cc1ccc(-c2cn(-c3nc(O)c4ncn([C@@H]5O[C@H](CO)[C@@H](O)[C@H]5O)c4n3)nn2)cc1 ?
## Result >240 μM

## Task Would you kindly share the measured HEL cell effects cell morphology (MDC) for COc1ccc(-c2cn(-c3nc(O)c4ncn([C@@H]5O[C@H](CO)[C@@H](O)[C@H]5O)c4n3)nn2)cc1 ?
## Result >230 μM

###

test system: CMV AD-169 strain; assay: Anti-CMV activity in HEL cell cultures, AD-169 strain; format: cell-based, cytomegalovirus; settings: HEL cell cultures; reduce virus plaque formation by 50%; virus input 100 PFU
I'd appreciate it if you could supply pEC50 values for the items below.
Please treat pEC50 as minus the base-10 logarithm of the molar concentration.

## Task pEC50 of CCCCc1cn(-c2nc(O)c3ncn([C@@H]4O[C@H](CO)[C@@H](O)[C@H]4O)c3n2)nn1 on CMV AD-169 strain?
## Result 4.14

## Task pEC50 of Cc1ccc(-c2cn(-c3nc(O)c4ncn([C@@H]5O[C@H](CO)[C@@H](O)[C@H]5O)c4n3)nn2)cc1 on CMV AD-169 strain?
## Result 3.93

###

I'd appreciate it if you could supply GI50 values for the items below.
tested on: paclitaxel-resistant (PTX22) ovarian cancer cell line; test: GI50 against paclitaxel-resistant ovarian cancer cell line PTX22; conditions: read-out: GI50 PTX22; paclitaxel-resistant ovarian PTX22; four days
Number in µM, nothing else.

## Task GI50 of COc1ccc(-c2cn(-c3nc(O)c4ncn([C@@H]5O[C@H](CO)[C@@H](O)[C@H]5O)c4n3)nn2)cc1 on paclitaxel-resistant (PTX22) ovarian cancer cell line?
## Result 8.56

## Task GI50 of Cc1ccc(-c2cn(-c3nc(O)c4ncn([C@@H]5O[C@H](CO)[C@@H](O)[C@H]5O)c4n3)nn2)cc1 on paclitaxel-resistant (PTX22) ovarian cancer cell line?
## Result 13.4

## Task GI50 of OC[C@H]1O[C@@H](n2cnc3c(O)nc(-n4cc(-c5ccc(F)cc5)nn4)nc32)[C@H](O)[C@@H]1O on paclitaxel-resistant (PTX22) ovarian cancer cell line?
## Result 31

## Task GI50 of COc1ccc(-c2cn(-c3nc(O)c4ncn([C@H]5C[C@H](O)[C@@H](CO)O5)c4n3)nn2)cc1 on paclitaxel-resistant (PTX22) ovarian cancer cell line?
## Result 15.7

## Task GI50 of CCCCc1cn(-c2nc(O)c3ncn([C@@H]4O[C@H](CO)[C@@H](O)[C@H]4O)c3n2)nn1 on paclitaxel-resistant (PTX22) ovarian cancer cell line?
## Result 28.1

## Task GI50 of OCc1cn(-c2nc(O)c3ncn([C@H]4C[C@H](O)[C@@H](CO)O4)c3n2)nn1 on paclitaxel-resistant (PTX22) ovarian cancer cell line?
## Result 32.9

## Task GI50 of OCc1cn(-c2nc(O)c3ncn([C@@H]4O[C@H](CO)[C@@H](O)[C@H]4O)c3n2)nn1 on paclitaxel-resistant (PTX22) ovarian cancer cell line?
## Result 3.53

## Task GI50 of O=C1c2ccccc2C(=O)N1Cc1cn(-c2nc(O)c3ncn([C@@H]4O[C@H](CO)[C@@H](O)[C@H]4O)c3n2)nn1 on paclitaxel-resistant (PTX22) ovarian cancer cell line?
## Result 14.1

## Task GI50 of OC[C@H]1O[C@@H](n2cnc3c(O)nc(-n4cc(-c5ccccc5)nn4)nc32)[C@H](O)[C@@H]1O on paclitaxel-resistant (PTX22) ovarian cancer cell line?
## Result 4.76

## Task GI50 of OC[C@H]1O[C@@H](n2cnc3c(O)nc(-n4cc(-c5ccccc5)nn4)nc32)C[C@@H]1O on paclitaxel-resistant (PTX22) ovarian cancer cell line?
## Result 14.8

## Task GI50 of O=C1c2ccccc2C(=O)N1Cc1cn(-c2nc(O)c3ncn([C@H]4C[C@H](O)[C@@H](CO)O4)c3n2)nn1 on paclitaxel-resistant (PTX22) ovarian cancer cell line?
## Result 32.2

## Task GI50 of CCCCc1cn(-c2nc(O)c3ncn([C@H]4C[C@H](O)[C@@H](CO)O4)c3n2)nn1 on paclitaxel-resistant (PTX22) ovarian cancer cell line?
## Result 26.9

###

I'd appreciate it if you could supply GI50 values for the items below.
system: ovarian (1A9) cancer cell line; experiment: GI50 against ovarian cancer cell line 1A9; settings: read-out: GI50 1A9; ovarian 1A9; four days
Number in µM, nothing else.

## Task Would you kindly share the measured GI50 for OC[C@H]1O[C@@H](n2cnc3c(O)nc(-n4cc(-c5ccc(F)cc5)nn4)nc32)[C@H](O)[C@@H]1O ?
## Result 34

## Task Would you kindly share the measured GI50 for COc1ccc(-c2cn(-c3nc(O)c4ncn([C@@H]5O[C@H](CO)[C@@H](O)[C@H]5O)c4n3)nn2)cc1 ?
## Result 29.5

## Task Would you kindly share the measured GI50 for OCc1cn(-c2nc(O)c3ncn([C@@H]4O[C@H](CO)[C@@H](O)[C@H]4O)c3n2)nn1 ?
## Result 20.4

## Task Would you kindly share the measured GI50 for OC[C@H]1O[C@@H](n2cnc3c(O)nc(-n4cc(-c5ccccc5)nn4)nc32)[C@H](O)[C@@H]1O ?
## Result 22.8

## Task Would you kindly share the measured GI50 for O=C1c2ccccc2C(=O)N1Cc1cn(-c2nc(O)c3ncn([C@H]4C[C@H](O)[C@@H](CO)O4)c3n2)nn1 ?
## Result 49.6

## Task Would you kindly share the measured GI50 for O=C1c2ccccc2C(=O)N1Cc1cn(-c2nc(O)c3ncn([C@@H]4O[C@H](CO)[C@@H](O)[C@H]4O)c3n2)nn1 ?
## Result 6.32

## Task Would you kindly share the measured GI50 for OCc1cn(-c2nc(O)c3ncn([C@H]4C[C@H](O)[C@@H](CO)O4)c3n2)nn1 ?
## Result 49.4

## Task Would you kindly share the measured GI50 for CCCCc1cn(-c2nc(O)c3ncn([C@@H]4O[C@H](CO)[C@@H](O)[C@H]4O)c3n2)nn1 ?
## Result 37

## Task Would you kindly share the measured GI50 for Cc1ccc(-c2cn(-c3nc(O)c4ncn([C@@H]5O[C@H](CO)[C@@H](O)[C@H]5O)c4n3)nn2)cc1 ?
## Result 38

## Task Would you kindly share the measured GI50 for COc1ccc(-c2cn(-c3nc(O)c4ncn([C@H]5C[C@H](O)[C@@H](CO)O5)c4n3)nn2)cc1 ?
## Result 37.2

## Task Would you kindly share the measured GI50 for CCCCc1cn(-c2nc(O)c3ncn([C@H]4C[C@H](O)[C@@H](CO)O4)c3n2)nn1 ?
## Result 46.1

## Task Would you kindly share the measured GI50 for OC[C@H]1O[C@@H](n2cnc3c(O)nc(-n4cc(-c5ccccc5)nn4)nc32)C[C@@H]1O ?
## Result 31
